target: Human NaV1.7 (Homo sapiens); experiment: Ionworks Barracuda (IWB) automated patch clamp assay; settings: human NaV1.7 in HEK cells, population patch-clamp, state- and use-dependent voltage protocol; read-out: hNaV1.7 IWB-U IC50
Sequence (Q15858 whole entry): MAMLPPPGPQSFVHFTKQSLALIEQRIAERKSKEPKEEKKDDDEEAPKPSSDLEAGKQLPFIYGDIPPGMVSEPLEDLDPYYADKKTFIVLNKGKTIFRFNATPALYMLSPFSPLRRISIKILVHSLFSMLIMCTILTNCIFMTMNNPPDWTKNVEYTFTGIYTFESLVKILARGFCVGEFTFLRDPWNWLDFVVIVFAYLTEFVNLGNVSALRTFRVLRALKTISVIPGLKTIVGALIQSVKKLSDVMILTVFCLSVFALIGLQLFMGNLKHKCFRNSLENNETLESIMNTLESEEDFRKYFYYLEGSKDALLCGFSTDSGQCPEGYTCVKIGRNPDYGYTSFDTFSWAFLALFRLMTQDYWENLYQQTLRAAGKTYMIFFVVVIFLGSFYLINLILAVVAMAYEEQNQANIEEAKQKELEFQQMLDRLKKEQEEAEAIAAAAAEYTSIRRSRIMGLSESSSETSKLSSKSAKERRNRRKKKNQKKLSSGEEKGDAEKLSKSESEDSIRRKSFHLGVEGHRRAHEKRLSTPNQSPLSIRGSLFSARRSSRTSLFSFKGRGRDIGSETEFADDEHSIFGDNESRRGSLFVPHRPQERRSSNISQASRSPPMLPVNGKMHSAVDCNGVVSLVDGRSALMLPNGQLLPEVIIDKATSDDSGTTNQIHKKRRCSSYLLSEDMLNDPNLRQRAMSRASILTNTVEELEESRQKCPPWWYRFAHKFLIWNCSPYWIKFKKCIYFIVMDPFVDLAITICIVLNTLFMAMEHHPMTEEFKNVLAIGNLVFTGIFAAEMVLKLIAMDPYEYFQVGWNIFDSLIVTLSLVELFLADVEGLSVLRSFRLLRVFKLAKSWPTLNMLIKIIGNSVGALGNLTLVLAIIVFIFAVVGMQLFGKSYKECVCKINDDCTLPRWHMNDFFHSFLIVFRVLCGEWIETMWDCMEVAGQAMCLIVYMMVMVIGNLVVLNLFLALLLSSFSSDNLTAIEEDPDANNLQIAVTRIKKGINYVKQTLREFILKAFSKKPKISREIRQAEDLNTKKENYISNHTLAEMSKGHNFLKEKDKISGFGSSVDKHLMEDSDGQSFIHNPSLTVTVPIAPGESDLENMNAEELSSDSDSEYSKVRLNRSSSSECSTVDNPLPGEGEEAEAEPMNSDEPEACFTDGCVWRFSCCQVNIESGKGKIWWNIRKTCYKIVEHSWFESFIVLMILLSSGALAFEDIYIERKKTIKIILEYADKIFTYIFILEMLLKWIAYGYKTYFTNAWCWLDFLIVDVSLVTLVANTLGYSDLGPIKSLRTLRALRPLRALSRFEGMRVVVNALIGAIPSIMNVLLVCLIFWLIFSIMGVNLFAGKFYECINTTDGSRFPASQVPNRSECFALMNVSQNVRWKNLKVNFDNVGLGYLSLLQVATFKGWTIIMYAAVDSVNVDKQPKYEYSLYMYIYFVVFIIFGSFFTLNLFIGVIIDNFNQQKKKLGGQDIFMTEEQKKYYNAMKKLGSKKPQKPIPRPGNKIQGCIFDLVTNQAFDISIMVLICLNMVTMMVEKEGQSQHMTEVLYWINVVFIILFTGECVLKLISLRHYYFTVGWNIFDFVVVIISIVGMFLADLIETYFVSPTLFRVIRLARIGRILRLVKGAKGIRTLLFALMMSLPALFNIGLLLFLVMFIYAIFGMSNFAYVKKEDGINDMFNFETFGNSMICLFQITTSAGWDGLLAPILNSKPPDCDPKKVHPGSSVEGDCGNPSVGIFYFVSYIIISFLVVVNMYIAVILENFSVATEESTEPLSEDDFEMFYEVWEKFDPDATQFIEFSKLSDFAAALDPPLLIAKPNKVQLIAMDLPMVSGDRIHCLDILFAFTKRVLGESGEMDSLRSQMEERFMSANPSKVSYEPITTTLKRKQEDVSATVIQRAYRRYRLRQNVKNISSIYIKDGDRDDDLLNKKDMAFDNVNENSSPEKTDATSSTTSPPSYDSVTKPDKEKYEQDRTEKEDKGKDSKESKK
pIC50: −log10 of the molar value.
# cutoff 8 applies to pIC50; >= gives fulfilled, < gives not fulfilled

# example entries with known answers
COMPOUND	TESTED SYSTEM	QUALITATIVE LABEL
COc1cc([C@@H]2C[C@H]2C(F)(F)F)c(F)cc1-n1c(=O)ccc2cc(S(=O)(=O)Nc3ncns3)ccc21 (atropisomer, axis not shown; (P)) [Example 34]	Human NaV1.7 (Homo sapiens)	fulfilled
COc1cc([C@H]2CC2(F)F)c(F)cc1-n1c(=O)ccc2cc(S(=O)(=O)Nc3ccon3)ccc21 (atropisomer, axis not shown; (P)) [Example 10]	Human NaV1.7 (Homo sapiens)	not fulfilled

Please find the next compound below.
Assess whether reported pIC50 for COc1cc(C2(C(F)(F)F)CC2)c(Cl)cc1-n1c(=O)ccc2cc(S(=O)(=O)Nc3ncccn3)ccc21 (atropisomer, axis not shown; (P)) [Example 25] sits at 8 or higher.
not fulfilled

----------
Molecular target: UniProt Q15858
Assay: Ionworks Barracuda (IWB) automated patch clamp assay
Settings: human NaV1.7 in HEK cells, population patch-clamp, state- and use-dependent voltage protocol; read-out: hNaV1.7 IWB-U IC50
Experimental: Ionworks Barracuda (IWB) Automated Patch Clamp Assay (Same Protocol for Both Human and Mouse) Human NaV1.7 currents were recorded in population patch-clamp mode with the IWB automated electrophysiology system (Molecular Devices, LLC, Sunnyvale, Calif.). Spiking HEK cells (without Kir2.1 transfection) were cultured and prepared for recordings as previously described for IonWorks Quattro testing^1. […]
REPORTED ENDPOINT: IC50 (nM)
Write down the numeric answer in nM and omit the unit.

Worked examples, 4 molecules total:
MOLECULE	UNIT TAG	IC50
COc1cc([C@H]2C[C@@H]2C(F)(F)F)c(F)cc1-n1c(=O)ccc2cc(S(=O)(=O)Nc3ncccn3)ccc21 (atropisomer, axis not shown; (P))	nM	35
COc1cc([C@H]2C[C@@H]2C(F)(F)F)c(C)cc1-n1c(=O)ccc2cc(S(=O)(=O)Nc3ccon3)ccc21 (single isomer, unassigned)	nM	13
COc1cc([C@@H]2C[C@H]2C(F)(F)F)c(Cl)cc1-n1c(=O)ccc2cc(S(=O)(=O)Nc3ccon3)ccc21 (atropisomer, axis not shown; (P))	nM	7
COc1cc([C@H]2C[C@@H]2C(F)(F)F)c(F)cc1-n1c(=O)ccc2cc(S(=O)(=O)Nc3ncco3)ccc21 (atropisomer, axis not shown; (P))	nM	6

Field: IC50 (UniProt Q15858). Entry: COc1cc([C@H]2C[C@@H]2C(F)(F)F)c(F)cc1-n1c(=O)ccc2cc(S(=O)(=O)Nc3cccnn3)ccc21 (atropisomer, axis not shown; (P))
16

----------
target: UniProt:Q15858; experiment: Ionworks Barracuda (IWB) automated patch clamp assay; conditions: human NaV1.7 in HEK cells, population patch-clamp, state- and use-dependent voltage protocol; read-out: hNaV1.7 IWB-U IC50
REPORTED ENDPOINT: IC50 (nM)
Write down the numeric answer in nM and omit the unit.

COMPOUND	TESTED SYSTEM	IC50 (nM)
COc1cc([C@@H]2C[C@H]2C(F)(F)F)c(F)cc1-n1c(=O)ccc2cc(S(=O)(=O)Nc3ncccn3)ccc21 (atropisomer, axis not shown; (P)) [Example 20]	UniProt:Q15858	24
COc1cc(C2(C(F)(F)F)CC2)c(F)cc1-n1c(=O)ccc2cc(S(=O)(=O)Nc3ccon3)ccc21 (single isomer, unassigned) [Example 42]	UniProt:Q15858	20
COc1cc([C@H]2C[C@@H]2C(F)(F)F)c(C)cc1-n1c(=O)ccc2cc(S(=O)(=O)Nc3ncccn3)ccc21 (atropisomer, axis not shown; (P)) [Example 29]	UniProt:Q15858	32
COc1cc([C@H]2C[C@@H]2C(F)(F)F)c(F)cc1-n1c(=O)ccc2cc(S(=O)(=O)Nc3ccon3)c(F)cc21 (single isomer, unassigned) [Example 46]	UniProt:Q15858	11
COc1cc([C@@H]2C[C@H]2C(F)(F)F)ccc1-n1c(=O)ccc2cc(S(=O)(=O)Nc3ccon3)ccc21 (single isomer, unassigned) [Example 38]	UniProt:Q15858	10

Next compound, please.
Returns the measured IC50 for the input compound. Input: COc1cc([C@@H]2C[C@H]2C(F)(F)F)c(F)cc1-n1c(=O)cc(F)c2cc(S(=O)(=O)Nc3ccon3)ccc21 (atropisomer, axis not shown; (P)) [Example 44]
5
